- Tested on: CSNK2A2
- Assay conditions: concentration: 1 μM,replicates: in singlicate; n = 1;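 also: KINOMEscan kinase panel screen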
Endpoint: %Inh (%)

[[record]]
molecule = "COc1cc2nccc(Nc3ccc(Oc4ccccc4)cc3)c2cc1OC.Cl"
endpoint = "%Inh"
endpoint_value = 24

[[record]]
molecule = "Cc1ccc(C(=O)Nc2ccc(Oc3ccc4nc(NC(=O)C5CC5)cn4c3)c(F)c2)c(=O)n1-c1ccccc1"
endpoint = "%Inh"
endpoint_value = 0

[[record]]
molecule = "C[C@@H]1CNc2c(sc3ccc4nc(-c5ccncc5)ccc4c23)C(=O)N1"
endpoint = "%Inh"
endpoint_value = 0

[[record]]
molecule = "Cc1cccc(-c2nc(Nc3ccncc3)c3sccc3n2)n1"
endpoint = "%Inh"
endpoint_value = 30

[[record]]
molecule = "CC(=O)c1c(-c2ccncc2)[nH]c(-c2ccncc2)c1C"
endpoint = "%Inh"
endpoint_value = 8

[[record]]
molecule = "COc1cccc(C2=C(Nc3cccc(Cl)c3)C(=O)NC2=O)c1"
endpoint = "%Inh"
endpoint_value = 4

[[record]]
molecule = "CCn1c(-c2nonc2N)nc2cncc(Br)c21"
endpoint = "%Inh"
endpoint_value = 21

[[record]]
molecule = "COC(=O)c1cccc(NC(=O)NC2CCN(c3ccnc(Nc4cc(OC)c(OC)c(OC)c4)n3)C2)c1 (centres unmarked)"
endpoint = "%Inh"
endpoint_value = 29

[[record]]
molecule = "CSc1nccc(-c2c(-c3ccc(F)cc3)ncn2CCCN2CCOCC2)n1.Cl"
endpoint = "%Inh"
endpoint_value = 15

[[record]]
molecule = "C[C@@H](Oc1cc(-n2cnc3ccc(-c4ccncc4)cc32)sc1C(N)=O)c1ccccc1Cl"
endpoint = "%Inh"
endpoint_value = 89

[[record]]
molecule = "Cn1cc(-c2cccc3c(N)c(C(N)=O)nnc23)cn1"
endpoint = "%Inh"
endpoint_value = 33

[[record]]
molecule = "CCOC(=O)N1CCC(n2cnc(-c3ccc(F)cc3)c2-c2ccnc(N)n2)CC1"
endpoint = "%Inh"
endpoint_value = 9

[[record]]
molecule = "CC(C)c1nc(-c2cccc(NS(=O)(=O)c3ccccc3)c2)c(-c2ccnc(Nc3ccc4c(c3)CN(C)CC4)n2)s1"
endpoint = "%Inh"
endpoint_value = 9

[[record]]
molecule = "CCn1c(-c2nonc2N)nc2cncc(CNC3CCNCC3)c21.Cl"
endpoint = "%Inh"
endpoint_value = 0

[[record]]
molecule = "CS(=O)(=O)Nc1ccc(-c2ccnc3[nH]ccc23)cc1"
endpoint = "%Inh"
endpoint_value = 16

[[record]]
molecule = "COC(=O)Nc1nc2cc(Oc3ccc(NC(=O)Nc4cc(C(F)(F)F)ccc4Cl)cc3)ccc2[nH]1.Cl"
endpoint = "%Inh"
endpoint_value = 0

[[record]]
molecule = "O=C(Nc1cccc(Oc2ccc3nccn3n2)c1)Nc1cccc(C(F)(F)F)c1"
endpoint = "%Inh"
endpoint_value = 3


---

# maps each entry to its %Inh
- System: BMPR1B
- Assay conditions: concentration: 1 μM,replicates: in singlicate; n = 1
Endpoint: %Inh (%)

[[record]]
compound = "c1ccc(Oc2ccc(Nc3ccnc4ccc(-c5ccccn5)cc34)cc2)cc1"
endpoint = "%Inh"
endpoint_value = 0

[[record]]
compound = "CCNCC(Cc1ccccc1)NC(=O)c1cc(Br)c(-c2ccnc3[nH]ccc23)s1.Cl.Cl (centres unmarked)"
endpoint = "%Inh"
endpoint_value = 0

[[record]]
compound = "C[C@@H]1CNc2c(sc3ccc4nc(-c5ccncc5)ccc4c23)C(=O)N1"
endpoint = "%Inh"
endpoint_value = 7

[[record]]
compound = "CS(=O)(=O)c1cccc(CNc2nc(Nc3ccc4c(c3)[C@@H]3C[C@@H]4CNC3=O)ncc2C(F)(F)F)c1"
endpoint = "%Inh"
endpoint_value = 0

[[record]]
compound = "Cc1cccc2c(-c3ccncc3)c(-c3ccc(F)cc3)nn12.Cl"
endpoint = "%Inh"
endpoint_value = 0

[[record]]
compound = "CC(=O)Nc1ccc(-c2cc3ncnc(SCC(=O)O)c3s2)cc1"
endpoint = "%Inh"
endpoint_value = 0

[[record]]
compound = "CN1CCN(CCNc2nc3cc(Oc4ccc(NC(=O)Nc5cc(C(F)(F)F)ccc5F)cc4)ccc3[nH]2)CC1.Cl.Cl"
endpoint = "%Inh"
endpoint_value = 0

[[record]]
compound = "Cc1ccc2c(-c3ccnc(Nc4ccc(C(F)(F)F)cc4)n3)cnn2n1"
endpoint = "%Inh"
endpoint_value = 0

[[record]]
compound = "Cn1ccc2ncnc(Oc3ccc(NC(=O)Nc4cncc(C(F)(F)F)c4)c(Cl)c3)c21"
endpoint = "%Inh"
endpoint_value = 0

[[record]]
compound = "COC(=O)c1cccc(NC(=O)NC2CCN(c3ccnc(NCc4ccc(F)cc4)n3)CC2)c1"
endpoint = "%Inh"
endpoint_value = 0

[[record]]
compound = "CS(=O)c1ccc(-c2coc3ccc(-c4n[nH]c(=O)o4)cc23)cc1 (centres unmarked)"
endpoint = "%Inh"
endpoint_value = 32

[[record]]
compound = "O=C(Nc1n[nH]c2cc(-c3ccco3)ccc12)C1CC1"
endpoint = "%Inh"
endpoint_value = 14

[[record]]
compound = "COC(=O)c1cccc(NC(=O)NC2CCN(c3ccnc(Nc4cc(OC)c(OC)c(OC)c4)n3)C2)c1 (centres unmarked)"
endpoint = "%Inh"
endpoint_value = 0

[[record]]
compound = "O=C(Nc1ccccc1)c1cccc(Oc2ccc3nccn3n2)c1"
endpoint = "%Inh"
endpoint_value = 14

[[record]]
compound = "CC(=O)Nc1nc2cnc(Nc3cc(NC(=O)c4cccc(CC(C)(C)C#N)c4)ccc3C)nc2s1"
endpoint = "%Inh"
endpoint_value = 2

[[record]]
compound = "CS(=O)(=O)Nc1ccc(-c2ccnc3[nH]ccc23)cc1"
endpoint = "%Inh"
endpoint_value = 3

[[record]]
compound = "Cn1ccc2ncnc(Oc3ccc(NC(=O)Nc4ccnc(C(F)(F)F)c4)c(Cl)c3)c21"
endpoint = "%Inh"
endpoint_value = 6

